test system: Mycobacterium kansasii; assay: Antimycobacterial activity against Mycobacterium kansasii CNCTC My 235/80 after 14 days by microdilution method; assay type: functional; conditions: CNCTC My 235/80, 336 h
Binary call on MIC with cut-off 20 µM: strictly below means YES, and equality or higher means NO.

{"columns": ["STRUCTURE_STRING", "CATEGORY"],
 "data": [
  ["S=c1oc2c(Cl)cc(Cl)cc2c(=S)n1Cc1ccc(Cl)c(Cl)c1", "NO"],
  ["O=c1oc2ccc(Cl)cc2c(=O)n1Cc1ccc(Cl)c(Cl)c1", "NO"],
  ["O=c1oc2ccc(Cl)cc2c(=O)n1Cc1ccc(F)cc1", "NO"],
  ["O=c1oc2c(Cl)cc(Cl)cc2c(=S)n1Cc1ccc(Cl)c(Cl)c1", "YES"],
  ["O=c1oc2ccccc2c(=O)n1Cc1ccccc1", "NO"],
  ["O=c1oc2c(Cl)cc(Cl)cc2c(=O)n1Cc1ccc(Cl)c(Cl)c1", "NO"],
  ["O=c1oc2ccc(Br)cc2c(=O)n1Cc1ccc(Cl)c(Cl)c1", "NO"],
  ["S=c1oc2ccc(Br)cc2c(=S)n1Cc1ccc(Cl)c(Cl)c1", "YES"],
  ["NNC(=O)c1ccncc1", "NO"],
  ["Cc1ccc2oc(=O)n(Cc3ccccc3)c(=S)c2c1", "YES"],
  ["O=c1oc2ccc(Br)cc2c(=S)n1Cc1ccccc1", "YES"],
  ["S=c1oc2ccc(Br)cc2c(=S)n1Cc1ccccc1", "YES"]
]}

* * *

system: Mycobacterium tuberculosis; assay: Antimycobacterial activity against Mycobacterium tuberculosis CNCTC My 331/88 after 14 days by microdilution method; type: functional; details: CNCTC My 331/88, 336 h
ENDPOINT_NAME: MIC (µM)

{"columns": ["STRUCTURE_STRING", "TARGET_SYSTEM", "VALUE_MEASURED"],
 "data": [
  ["O=c1oc2ccc(Cl)cc2c(=S)n1Cc1ccccc1", "Mycobacterium tuberculosis", 1],
  ["O=c1oc2ccc(Cl)cc2c(=O)n1Cc1ccccc1", "Mycobacterium tuberculosis", 62.5],
  ["O=c1oc2ccccc2c(=S)n1Cc1ccccc1", "Mycobacterium tuberculosis", 1],
  ["O=c1oc2ccccc2c(=S)n1Cc1ccc(Cl)c(Cl)c1", "Mycobacterium tuberculosis", 1],
  ["NNC(=O)c1ccncc1", "Mycobacterium tuberculosis", 1],
  ["Cc1ccc2oc(=O)n(Cc3ccccc3)c(=S)c2c1", "Mycobacterium tuberculosis", 1],
  ["O=c1oc2ccc(Cl)cc2c(=O)n1Cc1ccc(Cl)c(Cl)c1", "Mycobacterium tuberculosis", 16],
  ["O=c1oc2ccc(Cl)cc2c(=O)n1Cc1ccc(F)cc1", "Mycobacterium tuberculosis", 32],
  ["O=c1oc2c(Cl)cc(Cl)cc2c(=S)n1Cc1ccc(Cl)c(Cl)c1", "Mycobacterium tuberculosis", 2],
  ["Fc1ccc(Cn2c(=S)oc3ccc(Cl)cc3c2=S)cc1", "Mycobacterium tuberculosis", 1],
  ["S=c1oc2ccc(Cl)cc2c(=S)n1Cc1ccc(Cl)c(Cl)c1", "Mycobacterium tuberculosis", 4],
  ["S=c1oc2ccccc2c(=S)n1Cc1ccc(Cl)c(Cl)c1", "Mycobacterium tuberculosis", 1],
  ["O=c1oc2ccc(Br)cc2c(=S)n1Cc1ccc(Cl)c(Cl)c1", "Mycobacterium tuberculosis", 2],
  ["O=c1oc2ccc(Br)cc2c(=O)n1Cc1ccccc1", "Mycobacterium tuberculosis", 62.5],
  ["S=c1oc2ccccc2c(=S)n1Cc1ccccc1", "Mycobacterium tuberculosis", 1],
  ["O=c1oc2ccc(Cl)cc2c(=S)n1Cc1ccc(F)cc1", "Mycobacterium tuberculosis", 1],
  ["O=c1oc2ccc(Br)cc2c(=S)n1Cc1ccccc1", "Mycobacterium tuberculosis", 1],
  ["O=c1oc2ccc(Cl)cc2c(=S)n1Cc1ccc(Cl)c(Cl)c1", "Mycobacterium tuberculosis", 32],
  ["Cc1ccc2oc(=O)n(Cc3ccccc3)c(=O)c2c1", "Mycobacterium tuberculosis", 32],
  ["O=c1oc2ccccc2c(=O)n1Cc1ccccc1", "Mycobacterium tuberculosis", 32],
  ["S=c1oc2ccc(Br)cc2c(=S)n1Cc1ccc(Cl)c(Cl)c1", "Mycobacterium tuberculosis", 4],
  ["O=c1oc2ccccc2c(=O)n1Cc1ccc(Cl)c(Cl)c1", "Mycobacterium tuberculosis", 32]
]}

* * *

# MIC annotations
test system: Mycobacterium kansasii; assay: Antimycobacterial activity against Mycobacterium kansasii 6509/96 after 14 days by microdilution method; format: functional; details: 6509/96, 336 h

{"columns": ["STRUCTURE_STRING", "TARGET_SYSTEM", "MIC"],
 "data": [
  ["S=c1oc2ccc(Cl)cc2c(=S)n1Cc1ccc(Cl)c(Cl)c1", "Mycobacterium kansasii", "32 µM"],
  ["O=c1oc2ccc(Cl)cc2c(=S)n1Cc1ccccc1", "Mycobacterium kansasii", "4 µM"],
  ["O=c1oc2ccc(Br)cc2c(=S)n1Cc1ccccc1", "Mycobacterium kansasii", "4 µM"],
  ["O=c1oc2ccc(Cl)cc2c(=S)n1Cc1ccc(Cl)c(Cl)c1", "Mycobacterium kansasii", "62.5 µM"],
  ["S=c1oc2ccccc2c(=S)n1Cc1ccccc1", "Mycobacterium kansasii", "1 µM"],
  ["O=c1oc2ccc(Cl)cc2c(=O)n1Cc1ccccc1", "Mycobacterium kansasii", "125 µM"],
  ["CO[C@H]1/C=C/O[C@@]2(C)Oc3c(C)c(O)c4c(O)c(c(/C=N/N5CCN(C)CC5)c(O)c4c3C2=O)NC(=O)/C(C)=C\\C=C\\[C@H](C)[C@H](O)[C@@H](C)[C@@H](O)[C@@H](C)[C@H](OC(C)=O)[C@@H]1C", "Mycobacterium kansasii", "0.125 µM"],
  ["S=c1oc2ccccc2c(=S)n1Cc1ccc(Cl)c(Cl)c1", "Mycobacterium kansasii", "4 µM"],
  ["O=c1oc2ccccc2c(=S)n1Cc1ccc(Cl)c(Cl)c1", "Mycobacterium kansasii", "2 µM"],
  ["O=c1oc2ccccc2c(=O)n1Cc1ccccc1", "Mycobacterium kansasii", "62.5 µM"],
  ["Cc1ccc2oc(=O)n(Cc3ccccc3)c(=O)c2c1", "Mycobacterium kansasii", "62.5 µM"],
  ["S=c1oc2ccc(Br)cc2c(=S)n1Cc1ccccc1", "Mycobacterium kansasii", "4 µM"],
  ["Cc1ccc2oc(=O)n(Cc3ccccc3)c(=S)c2c1", "Mycobacterium kansasii", "1 µM"],
  ["O=c1oc2ccccc2c(=S)n1Cc1ccccc1", "Mycobacterium kansasii", "4 µM"],
  ["O=c1oc2c(Cl)cc(Cl)cc2c(=S)n1Cc1ccc(Cl)c(Cl)c1", "Mycobacterium kansasii", "16 µM"],
  ["O=c1oc2ccc(Cl)cc2c(=S)n1Cc1ccc(F)cc1", "Mycobacterium kansasii", "4 µM"],
  ["O=c1oc2ccc(Br)cc2c(=O)n1Cc1ccccc1", "Mycobacterium kansasii", "62.5 µM"],
  ["O=c1oc2ccc(Br)cc2c(=S)n1Cc1ccc(Cl)c(Cl)c1", "Mycobacterium kansasii", "16 µM"],
  ["O=c1oc2c(Cl)cc(Cl)cc2c(=O)n1Cc1ccc(Cl)c(Cl)c1", "Mycobacterium kansasii", "125 µM"],
  ["O=c1oc2ccc(Br)cc2c(=O)n1Cc1ccc(Cl)c(Cl)c1", "Mycobacterium kansasii", "62.5 µM"],
  ["S=c1oc2c(Cl)cc(Cl)cc2c(=S)n1Cc1ccc(Cl)c(Cl)c1", "Mycobacterium kansasii", "62.5 µM"],
  ["O=c1oc2ccccc2c(=O)n1Cc1ccc(Cl)c(Cl)c1", "Mycobacterium kansasii", "62.5 µM"],
  ["NNC(=O)c1ccncc1", "Mycobacterium kansasii", "8 µM"]
]}

* * *

tested on: Mycobacterium tuberculosis; experiment: Antimycobacterial activity against Mycobacterium tuberculosis CNCTC My 331/88 after 14 days by microdilution method; type: functional; conditions: CNCTC My 331/88, 336 h

{"columns": ["STRUCTURE_STRING", "MIC / µM"],
 "data": [
  ["O=c1oc2ccc(Br)cc2c(=O)n1Cc1ccc(Cl)c(Cl)c1", 32],
  ["O=c1oc2c(Cl)cc(Cl)cc2c(=O)n1Cc1ccc(Cl)c(Cl)c1", 62.5],
  ["CO[C@H]1/C=C/O[C@@]2(C)Oc3c(C)c(O)c4c(O)c(c(/C=N/N5CCN(C)CC5)c(O)c4c3C2=O)NC(=O)/C(C)=C\\C=C\\[C@H](C)[C@H](O)[C@@H](C)[C@@H](O)[C@@H](C)[C@H](OC(C)=O)[C@@H]1C", 0.25],
  ["S=c1oc2ccc(Br)cc2c(=S)n1Cc1ccccc1", 1],
  ["S=c1oc2c(Cl)cc(Cl)cc2c(=S)n1Cc1ccc(Cl)c(Cl)c1", 32]
]}

* * *

system: Mycobacterium avium; assay: Antimycobacterial activity against Mycobacterium avium CNCTC My 330/88 after 21 days by microdilution method; assay type: functional; details: CNCTC My 330/88, 504 h
ENDPOINT_NAME: MIC (µM)

{"columns": ["COMPOUND", "ENDPOINT_NAME", "LT_GT_EQ", "VALUE_MEASURED"],
 "data": [
  ["NNC(=O)c1ccncc1 [ISONIAZID]", "MIC", ">", 250],
  ["Cc1ccc2oc(=O)n(Cc3ccccc3)c(=O)c2c1", "MIC", "=", 62.5],
  ["O=c1oc2ccc(Cl)cc2c(=S)n1Cc1ccccc1", "MIC", "=", 8],
  ["O=c1oc2ccc(Cl)cc2c(=O)n1Cc1ccc(F)cc1", "MIC", "=", 32],
  ["S=c1oc2ccccc2c(=S)n1Cc1ccccc1", "MIC", "=", 1],
  ["S=c1oc2ccc(Br)cc2c(=S)n1Cc1ccc(Cl)c(Cl)c1", "MIC", "=", 16],
  ["O=c1oc2ccc(Cl)cc2c(=S)n1Cc1ccc(Cl)c(Cl)c1", "MIC", "=", 62.5],
  ["O=c1oc2ccc(Cl)cc2c(=S)n1Cc1ccc(F)cc1", "MIC", "=", 4],
  ["S=c1oc2ccc(Br)cc2c(=S)n1Cc1ccccc1", "MIC", "=", 8],
  ["O=c1oc2c(Cl)cc(Cl)cc2c(=S)n1Cc1ccc(Cl)c(Cl)c1", "MIC", "=", 4],
  ["O=c1oc2ccc(Br)cc2c(=O)n1Cc1ccc(Cl)c(Cl)c1", "MIC", "=", 32]
]}
